Data credit: ChEMBL document CHEMBL4190247

Species: Rattus norvegicus
Assay: Modulation of [3H]NCS-382 binding to alpha4betadelta GABAA receptor in rat cortical membranes assessed as [3H]NCS-382 binding at 100 uM after 1 hr by TopCount scintillation counting method relative to control
Assay type: cell membranes
Calls of active or inactive are those of the source. The calls are words filed in the database; no cut-off is given here.
assay_readout: %max

Below, 5 compounds whose answers are already recorded.
Problem: I am curious: what %max value has been reported for CCOC(=O)C1=C(C)NC(=O)NC1c1ccccc1 (configuration not stated) ?
Result: inactive

Problem: Let us now turn to CCOC(=O)C1=C2CCCN2C(=S)NC1c1cccc(O)c1 (configuration not stated)
Result: inactive

Problem: Let us now turn to CCOC(=O)C1=C(C)NC(=S)NC1c1cccc(OC)c1 (configuration not stated)
Result: inactive

Problem: Let us now turn to CCCCN1C(=S)NC(c2cccc(O)c2)C(C(=O)OCC)=C1C (configuration not stated)
Result: inactive

Problem: Let us now turn to CCN(CC)C(=O)C1=C(C)NC(=S)NC1c1cccc(O)c1 (configuration not stated)
Result: inactive

Others:
Problem: I am curious: what %max value has been reported for CCOC(=O)C1=C(C)NC(=O)NC1c1cccc(O)c1 (configuration not stated) ?
Result: inactive

Problem: Let us now turn to CCOC(=O)C1=C(C)N(C)C(=S)NC1c1cccc(O)c1 (configuration not stated)
Result: 177%

Problem: Let us now turn to CCOC(=O)C1=C(C)NC(=S)NC1c1ccc(O)c(O)c1 (configuration not stated)
Result: 246%

Problem: Let us now turn to CCOC(=O)C1=C(C)NC(=S)NC1c1ccnn1C (configuration not stated)
Result: inactive
